# System: NCI-H522 lung
# protocol: NCI-60 one-dose screen, 48 h
# condition: 10 µM
About 83,000 compounds went through this panel and 20% of them were active in at least one assay; those are over-represented in the sample as a whole. Activity calls are given as the source filed them. The calls were made as follows: active = growth percent below 10; inactive = the rest.
Select the correct class. Options are active, inactive and nothing else.

Field: example entries. Status: answers known.
compound	class_assignment
CCOc1cc(Br)c(C(C)NC(=O)c2cccc(OC)c2)cc1OCC (centres undefined)	inactive
CCOC(=O)c1c(Cl)c2c(n1Cc1cccc(OC)c1)-c1oncc1CC2	active
O=C1CC[C@@H](C(=O)N[C@H]2CSSC[C@@H](C(=O)N/C=C/c3ccc(O)cc3)NC(=O)[C@H](Cc3ccccc3)NC(=O)[C@@H]3CCCN3C(=O)[C@@H]3CCCN3C2=O)N1	inactive
Cc1nc2cc(-n3c(-c4ccc(F)cc4)nc4ccccc4c3=O)ccc2n1Cc1ccccc1	inactive
FC(F)(F)c1ccc(-c2cnc(Cl)nc2NCc2cc(C(F)(F)F)cc(C(F)(F)F)c2)cc1	active
N#CCC1CCCC1	inactive

Recorded call for "N#C/C(=C\N1C(=O)/C(=C/c2cccc([N+](=O)[O-])c2)SC1=S)c1nc2ccccc2s1" ?
inactive

How about "Oc1ccccc1-c1nnc(Cn2c(Cc3cccc4ccccc34)nc3ccccc32)o1" ?
inactive

How about "O=C(Nc1cccc([N+](=O)[O-])c1)NN1CCCCCC1" ?
inactive

* * *

# Test system: LOX IMVI melanoma
# protocol: NCI-60 one-dose screen, 48 h
# condition: 10 µM
About 83,000 compounds went through this panel and 20% of them were active in at least one assay; those are over-represented in the sample as a whole. The source made the active and inactive calls. The calls were made as follows: active = growth percent below 10; inactive = the rest.
Select the correct class. Options are active, inactive and nothing else.

Field: example entries. Status: answers known.
>>> print(df.to_string())
                                   compound  class_assignment
0  CN(C)c1ccc2c(c1)OC(N)=C(C#N)C2c1ccc2c(c1)CCCN2C (stereo unspecified)          inactive
1  N#C/C(=C/c1cc([N+](=O)[O-])ccc1Cl)C(N)=O          inactive

Recorded call for "N#CN1CC[C@H](C(=O)Nc2ncc(-c3ccccc3)s2)C1" ?
active

How about "CCCCCCCCCCCC(=O)NCCCN(C)C" ?
inactive

How about "Nc1cc2c(cc1Cl)-c1ccc(Cl)cc1C2=O" ?
inactive

How about CC(=O)OC1Oc2ccccc2-c2oc(=O)c(-c3cc(=O)oc4cc(O)ccc34)cc21 (stereo unspecified) ?
inactive

* * *

// reported growth for each item listed
# Test system: HCC-2998 colon
# protocol: NCI-60 one-dose screen, 48 h (100 = growth as untreated, 0 = no growth, -100 = all killed)
# condition: 10 µM
# Method: Growth inhibition of the HCC-2998 human tumor cell line is measured as a screen for anti-cancer activity. Cells are grown in 96 well plates and exposed to the test compound for 48 hours. Compounds are tested at a single concentration, which is 10^-5 M for most compounds. The reported endpoint is percent growth (GI% or GIPRCNT), where numbers from 0 - 100% represent growth inhibition, and numbers from -100% - 0 represent cell death. For example, a value of 40 represents 60% growth inhibition. […]
Compounds without any hit were thinned out: in the full panel of roughly 83,000, 20% have a hit.
# number only, unit % dropped from output

A selection of reference data follows.
>>> print(df.to_string())
                                  compound  unit_spec  value_observed
0  O=c1ccc2nc(-c3ccccc3)nn(-c3ccccc3)c-2c1          %             100
1       Cc1cnc(C=O)c2cccc([N+](=O)[O-])c12          %             101
2               O=C(NCCCl)c1cc(Cl)cc(Cl)c1          %             102
3            [O-]c1c[n+](-c2ccc(Cl)cc2)no1          %             101

API: value(readout=growth, system=HCC-2998 colon) for record NC1CCC(Nc2nc(NCc3ccc(-c4cccs4)nc3)c3ncn(C4CCCC4)c3n2)CC1 (configuration not stated)
-43.1

How about "Cc1ccc(/C(CS(=O)(=O)c2ccc(C)cc2)=N\O)cc1" ?
103

How about "COc1cccc2c1O/C(=C\c1ncc([N+](=O)[O-])n1C)C2=O" ?
-54.9

How about "COc1ccc(N2CCN(c3nc(-c4ccccc4)c(C#N)c(=O)[nH]3)CC2)cc1" ?
99.8

How about "C=CCNC(=S)NN" ?
107

How about "COc1ccc(C(=O)c2sc3nc(-c4cccs4)ccc3c2N)cc1OC" ?
82

How about "O=C(CCl)N1c2ccccc2Sc2ccc3ccccc3c21" ?
-94.4

How about "CN(C)CCCN(Cc1ccccc1O)C(=S)Nc1ccc(Cl)cc1" ?
83.4

* * *

# System: SF-539 CNS
# protocol: NCI-60 one-dose screen, 48 h (100 = growth as untreated, 0 = no growth, -100 = all killed)
# condition: 10 µM
The panel holds about 83,000 compounds, 20% with a hit somewhere; the sample as a whole holds those more often.
Rule: growth of 50% or more gives T; anything lower gives F.

# bool: growth of "COc1ccc2oc(=O)cc(C(c3ccc[nH]3)c3ccc[nH]3)c2c1" >= 50%
F

How about "COc1cc2c3c(cccc3c1)C(=O)N(CCN1CCCC1)C2=O" ?
F

How about "CC(=O)c1ccc(NCn2nc(-c3ccc(Cl)cc3)oc2=S)cc1" ?
T

How about "CS(=O)(=O)Nc1ccc([N+](=O)[O-])cc1Oc1ccccc1" ?
T

How about "COc1cc([C@@H]2c3cc4c(cc3[C@H](SC(=N)N)[C@H]3COC(=O)[C@H]23)OCO4)cc(OC)c1OC" ?
F

How about CC1=CSC2=NC(c3ccc(Cl)c(Cl)c3)=CC(c3ccc(Cl)cc3)N12 (stereo not given) ?
F

* * *

// reported growth for each item listed
# System: DU-145 prostate
# protocol: NCI-60 one-dose screen, 48 h (100 = growth as untreated, 0 = no growth, -100 = all killed)
# condition: 10 µM
About 83,000 compounds went through this panel and 20% of them were active in at least one assay; those are over-represented in the sample as a whole.
# number only, unit % dropped from output

Which growth value belongs to "O=C(O)CNS(=O)(=O)c1ccc(OCCOc2ccc(S(=O)(=O)NCC(=O)O)cc2)cc1" ?
107

How about "COc1ccc2nc(C)cc(Nc3ccc(Cl)cc3)c2c1" ?
102

How about COc1cc(C(c2c[nH]c3ccccc23)N2CCCC2)ccc1OCc1ccccc1 (stereo unspecified) ?
95.9

How about O=C(c1ccccc1)C(Sc1ccccc1)c1ccccc1 (stereo unspecified) ?
29.7

How about "CC(=O)OCC(COC(C)=O)(COC(C)=O)COC(C)=O" ?
103

How about "COc1cc(-c2nc3ccccc3[nH]2)ccc1OCc1nnc(-c2ccc(Br)cc2)o1" ?
84.8

* * *

# Test system: K-562 leukemia
# protocol: NCI-60 one-dose screen, 48 h (100 = growth as untreated, 0 = no growth, -100 = all killed)
# condition: 10 µM
The panel holds about 83,000 compounds, 20% with a hit somewhere; the sample as a whole holds those more often.
// reported growth for each item listed
# number only, unit % dropped from output

A selection of reference data follows.
compound	growth (%)
COc1ccccc1NC1=C(N2CCCCC2)C(=O)c2ccccc2C1=O	75.5
Cn1cnc([N+](=O)[O-])c1/C=C1\Oc2ccc(Cl)cc2C1=O	52.4
O=[N+]([O-])c1ccc2c(c1)Cc1cc(I)ccc1-2	95.6
CCOC(=O)C(=O)Cc1cccnn1	110
CCOC(=O)c1sc(Nc2ncccn2)nc1-c1ccccn1	108

Which growth value belongs to "CNC(=S)Sc1ccc([N+](=O)[O-])cc1[N+](=O)[O-]" ?
7.74

How about "Cn1c(N)c(N=Cc2ccccc2)c(=O)n(C)c1=O" ?
95.8

How about "CC(C)c1ncc(CO)n1Cc1c(Cl)cccc1Cl" ?
92.3

How about "Cn1cnc([N+](=O)[O-])c1Sc1nnc(-c2ccccc2)c(-c2ccccc2)n1" ?
51

How about "CCOc1nc(-c2ccccc2)cc2c(O)c(C(=O)NC(C)C)[nH]c(=O)c12" ?
95

How about "O=[N+]([O-])c1cc2ncccc2c2ncccc12" ?
49.3

How about OC(CNC1CCCC1)Cn1c2ccccc2c2ccccc21 (stereo not given) ?
3.31

How about "Cc1ccc(/C=C2\CN(Cc3cn(CCNc4ccnc5cc(Cl)ccc45)nn3)C/C(=C\c3ccc(C)cc3)C2=O)cc1" ?
-14.7

* * *

# System: OVCAR-3 ovarian
# protocol: NCI-60 one-dose screen, 48 h (100 = growth as untreated, 0 = no growth, -100 = all killed)
# condition: 10 µM
The panel holds about 83,000 compounds, 20% with a hit somewhere; the sample as a whole holds those more often.
growth less than 90% is class 1; growth greater than or equal to 90% is class 0.

Field: example entries. Status: answers known.
                                   compound  class_assignment
0  O=C(Nc1ccc(OS(=O)(=O)Cc2ccccc2)cc1)C12CC3CC(CC(C3)C1)C2           class 1
1  CC(=O)Oc1c(C)c(C)c2c(c1C)CCC(C)(CC(=O)OCCCCCCCCCCC[P+](c1ccccc1)(c1ccccc1)c1ccccc1)O2 (configuration not stated)           class 1
2  NCCNc1ccc2cc(-c3nc4ccccc4[nH]3)c(=O)oc2c1           class 0
3                   COc1cc2ccnc(C=O)c2cc1OC           class 1
4  CCOC(=S)Sc1ccc([N+](=O)[O-])cc1[N+](=O)[O-]           class 1
5  C[C@]12CC[C@H]3[C@@H](CCC4=CC(=O)CC[C@@]43C)[C@@H]1CC[C@@H]2c1csc(N)n1           class 1
6  COc1cccc(C(=O)NNc2nc(N3CCN(C4CCCCC4)CC3)nc(N3CCN(C(c4ccccc4)c4ccccc4)CC3)n2)c1           class 1
7  CC(C)CCN(CCCNc1c2c(nc3cc(Cl)ccc13)CCCC2)CCC(C)C           class 1
8  C#CCNCCCN1C(=O)c2ccc3c4c(ccc(c24)C1=O)C(=O)N(CCCNCC#C)C3=O           class 1
9  COc1ccc(S(=O)(=O)Nc2cc(/C=C\c3cc(OC)c(OC)c(OC)c3)ccc2OC)cc1           class 1

Please determine if "Cc1nc2scc(-c3ccc(Cl)cc3)n2c(=O)c1CCN1CCOCC1" is below 90% in terms of growth.
class 0

How about "CC(=O)Nc1ccc(Sc2ccc(NC(C)=O)cc2)cc1" ?
class 0
